Test system: ERK phosphorylation in KRAS^G12D mutant cells (AGS)
TEST_SUMMARY: AGS ERK phosphorylation inhibition experiment
Assay type: cell-based
SETTINGS: Homo sapiens, 1 hour compound, hEGF 10 minutes
PROPERTY_NAME: IC50 (nM)
Answers are plain numbers, in nM.

Illustrative cases are given below, each with its answer.
{"COMPOUND": "C#Cc1c(F)ccc2cc(O)cc(-c3ncc4c(N5C[C@H]6CC[C@@H](C5)N6)nc(OC[C@]56CCCN5[C@H](COC)CC6)nc4c3F)c12 [Example 1 Isomer 1A]", "MEASURED_TARGET": "ERK phosphorylation in KRAS^G12D mutant cells (AGS)", "UNIT_OF_MEASURE": "nM", "IC50": 9.67}
{"COMPOUND": "C#Cc1c(F)ccc2cc(O)cc(-c3ncc4c(N5C[C@H]6CC[C@@H](C5)N6)nc(OC[C@@]56CCCN5[C@@H](COC)CC6)nc4c3F)c12 [Example 1 Isomer 1B]", "MEASURED_TARGET": "ERK phosphorylation in KRAS^G12D mutant cells (AGS)", "UNIT_OF_MEASURE": "nM", "IC50": 3.76}
{"COMPOUND": "C#Cc1c(F)ccc2cc(O)cc(-c3ncc4c(N5CC6CCC(C5)N6)nc(OCC56CCCN5CC5(CC5)C6)nc4c3F)c12 (centres unmarked) [Example 9]", "MEASURED_TARGET": "ERK phosphorylation in KRAS^G12D mutant cells (AGS)", "UNIT_OF_MEASURE": "nM", "IC50": 8.2}
{"COMPOUND": "C#Cc1c(F)ccc2cc(O)cc(-c3ncc4c(N5C[C@H]6CC[C@@H](C5)N6)nc(OC[C@@]56CCCN5[C@H](COC)CC6)nc4c3F)c12 [Example 1 Isomer 2B]", "MEASURED_TARGET": "ERK phosphorylation in KRAS^G12D mutant cells (AGS)", "UNIT_OF_MEASURE": "nM", "IC50": 139}

// next entry
Enquiry: Return reported IC50; argument: C#Cc1c(F)ccc2cc(O)cc(-c3ncc4c(N5C[C@H]6CC[C@@H](C5)N6)nc(OC[C@]56CCCN5[C@@H](COC)CC6)nc4c3F)c12 [Example 1 Isomer 2A]
Return: 19

###

TEST_SUMMARY: in vivo
SETTINGS: male, ICR, mouse, po, 30 mg/kg
Give measured AUC(0-t) for each item. Keep answers brief.
One number for each entry, in ng·h/mL.

Illustrative cases are given below, each with its answer.
{"STRUCTURE_STRING": "Nc1cc(Cl)c(C(F)(F)F)c(-c2ncc3c(N4C[C@H]5CC[C@@H](C4)N5)nc(OC[C@@]45CCCN4C[C@@]4(CC4(F)F)C5)nc3c2F)c1", "UNIT_OF_MEASURE": "ng·h/mL", "AUC(0-t)": 5090}
{"STRUCTURE_STRING": "Cc1cc(N)c(F)c(-c2ncc3c(N4C[C@H]5CC[C@@H](C4)N5)nc(OC[C@@]45CCCN4C[C@@]4(CC4(F)F)C5)nc3c2F)c1C(F)(F)F", "UNIT_OF_MEASURE": "ng·h/mL", "AUC(0-t)": 3380}

// next entry
Enquiry: Return reported AUC(0-t); argument: "N#Cc1c(N)sc2c(F)ccc(-c3ncc4c(N5CC6CCC(C5)N6)nc(OC[C@@]56CCCN5C[C@@]5(CC5(F)F)C6)nc4c3F)c12"
Return: 1250
